The values you see were collected from paper PMC3504387.

# assay_target: T1, GST–PPARγ fusion protein (purified ligand binding domain of PPARγ)
# T1 chain: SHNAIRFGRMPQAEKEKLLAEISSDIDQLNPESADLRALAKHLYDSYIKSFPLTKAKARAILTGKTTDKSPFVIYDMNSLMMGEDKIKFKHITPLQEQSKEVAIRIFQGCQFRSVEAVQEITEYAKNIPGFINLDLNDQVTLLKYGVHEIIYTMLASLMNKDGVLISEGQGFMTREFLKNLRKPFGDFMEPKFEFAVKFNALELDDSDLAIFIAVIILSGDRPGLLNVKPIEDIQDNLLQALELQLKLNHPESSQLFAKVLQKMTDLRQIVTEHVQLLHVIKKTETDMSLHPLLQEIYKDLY
# assay_name: FRET or BRET; homogeneous TR-FRET as a1, 12-concentration dose–response of RO4899100; the EC50 is of the compound; delta ratio in % of the reference compound at 10 μM (RO4899100 for PPARα, edaglitazone for PPARγ)
# conditions_used: both partners purified
Where no end group is shown, it is not given here. The star is where a group is joined. Biotin = O=C1N[C@H]2[C@H](CS[C@H]2CCCCC(=O)*)N1; Ahx = NCCCCCC(=O)O
measure_name: EC50 of RO4899100 for recruitment (nM)

{Biotin-Ahx}-TSGPQTPQAQQKSLLQQLLTE (source: synthetic peptide (Jerini or Biosynthan, Berlin)) [SRC1_M4 cofactor peptide (steroid receptor co-activator 1, motif 4)]; 1450
{Biotin-Ahx}-CPSSHSSLTERHKILHRLLQEGSPS (source: synthetic peptide (Jerini or Biosynthan, Berlin)) [SRC1_M2 cofactor peptide (steroid receptor co-activator 1, motif 2)]; 2080
{Biotin-Ahx}-GNTKNHPMLMNLLKDNPAQDF (thyroid hormone receptor-associated protein complex 220 kDa component (TRAP220), motif 2, residues 637-657; also called TRAP220_M2; TRAP220 M2; source: synthetic peptide (Jerini or Biosynthan, Berlin)); 4410
{Biotin-Ahx}-SGNLVPDAASKHKQLSELLRGGSGS (source: synthetic peptide (Jerini or Biosynthan, Berlin)) [CBP cofactor peptide (cAMP responsive element binding protein (CREB)-binding protein)]; 1990
